Data credit: ChEMBL document CHEMBL3885881

Species: Rattus norvegicus
Assay: DrugMatrix - Regimen: Daily Repeat
Format: toxicity, organism-based, Sprague-Dawley
Set-up: regimen Daily Repeat, gender Male, age 6-8 weeks
Conditions: in vivo, po, 0 mg/kg, 120 h, tissue Blood, route oral GAVAGE, dose level Control, time 5 day, vehicle .5 % CMC
ASSAY READOUT: ABSOLUTE LYMPHOCYTE (CELLS/uL)
Kindly provide the numeric value in CELLS/uL only, without the unit symbol.

Example molecules with recorded ABSOLUTE LYMPHOCYTE:
1. COc1cc(/C=C/C(=O)O)ccc1O [FERULATE]; 12549.5
2. CCN1CCCC1CNC(=O)c1cc(S(N)(=O)=O)ccc1OC (stereo not given) [SULPIRIDE]; 14943.67
3. Cl.NC[C@H]1CC[C@H](C(=O)Oc2ccc(CCC(=O)O)cc2)CC1 [CETRAXATE HYDROCHLORIDE]; 12549.5

Please report the recorded ABSOLUTE LYMPHOCYTE for CC(C)(C#N)c1cc(Cn2cncn2)cc(C(C)(C)C#N)c1 . 13871.67

Please report the recorded ABSOLUTE LYMPHOCYTE for O=C(O)CCc1nc(-c2ccccc2)c(-c2ccccc2)o1 . 14943.67

###

This listing pairs compounds with measured CHOLESTEROL.
Species on record: Rattus norvegicus
Assay: DrugMatrix - Regimen: Daily Repeat
Format: toxicity, organism-based, Sprague-Dawley
Set-up: regimen Daily Repeat, gender Male, age 6-8 weeks
Conditions: in vivo, po, 1500 mg/kg, 120 h, tissue Plasma, route oral GAVAGE, dose level High, time 5 day, vehicle .5 % CMC
Kindly provide the numeric value in mg/dL only, without the unit symbol.

1. COc1cc(/C=C/C(=O)O)ccc1O [FERULATE]; 64.67
2. CC[C@H]1OC(=O)[C@H](C)[C@@H](O[C@H]2C[C@@](C)(OC)[C@@H](O)[C@H](C)O2)[C@H](C)[C@@H](O[C@@H]2O[C@H](C)C[C@H](N(C)C)[C@H]2O)[C@](C)(O)C[C@@H](C)C(=O)[C@H](C)[C@@H](O)[C@]1(C)O [ERYTHROMYCIN]; 107.67
3. Cc1ccc(S(=O)(=O)NC(=O)NN2CCCCCC2)cc1 [TOLAZAMIDE]; 58.33

Please report the recorded CHOLESTEROL for O=C(O)CCc1nc(-c2ccccc2)c(-c2ccccc2)o1 [OXAPROZIN] . 83.67

Please report the recorded CHOLESTEROL for COc1ccc(Cl)cc1C(=O)NCCc1ccc(S(=O)(=O)NC(=O)NC2CCCCC2)cc1 [GLYBURIDE] . 63.33

###

Species on record: Rattus norvegicus
Assay: DrugMatrix - Regimen: Daily Repeat
Assay type: toxicity, organism-based, Sprague-Dawley
Set-up: regimen Daily Repeat, gender Male, age 6-8 weeks
Details: in vivo, po, 0 mg/kg, 72 h, tissue Blood, route oral GAVAGE, dose level Control, time 3 day, vehicle 100 % WATER
ASSAY READOUT: ABSOLUTE BASOPHIL (CELLS/uL)
Kindly provide the numeric value in CELLS/uL only, without the unit symbol.

Example compounds with recorded ABSOLUTE BASOPHIL:
1. C1CCN2C[C@@H]3C[C@@H](CN4CCCC[C@@H]34)[C@H]2C1 [SPARTEINE]; 0
2. CC(Cl)(Cl)Cl [TRICHLOROETHANE]; 0
3. NN [HYDRAZINE]; 0
4. C[N+](C)(C)CCOC(N)=O.[Cl-] [CARBACHOL]; 0
5. Cc1cc(C(C)(C)C)c(O)c(C)c1CC1=NCCN1 [OXYMETAZOLINE]; 0

Please report the recorded ABSOLUTE BASOPHIL for CCN(CC)C(=S)SSC(=S)N(CC)CC . 0

Please report the recorded ABSOLUTE BASOPHIL for Cc1cn([C@H]2C=C[C@@H](CO)O2)c(=O)[nH]c1=O [STAVUDINE] . 0

Please report the recorded ABSOLUTE BASOPHIL for CCC1(c2ccccc2)C(=O)NC(=O)NC1=O [PHENOBARBITAL] . 0

###

This listing pairs molecules with measured MEAN CORPUSCULAR HEMOGLOBIN.
Species: Rattus norvegicus
Test: DrugMatrix - Regimen: Daily Repeat
Assay type: toxicity, organism-based, Sprague-Dawley
Set-up: regimen Daily Repeat, gender Male, age 6-8 weeks
Details: in vivo, po, 1500 mg/kg, 72 h, tissue Blood, route oral GAVAGE, dose level High, time 3 day, vehicle .5 % CMC
Kindly provide the numeric value in pg only, without the unit symbol.

Example molecules with recorded MEAN CORPUSCULAR HEMOGLOBIN:
1) O=C(O)CCc1nc(-c2ccccc2)c(-c2ccccc2)o1 [OXAPROZIN]; 24.63
2) Cc1ccc(S(=O)(=O)NC(=O)NN2CCCCCC2)cc1 [TOLAZAMIDE]; 23.9
3) COc1cc(/C=C/C(=O)O)ccc1O [FERULATE]; 22.7

Please report the recorded MEAN CORPUSCULAR HEMOGLOBIN for CC[C@H]1OC(=O)[C@H](C)[C@@H](O[C@H]2C[C@@](C)(OC)[C@@H](O)[C@H](C)O2)[C@H](C)[C@@H](O[C@@H]2O[C@H](C)C[C@H](N(C)C)[C@H]2O)[C@](C)(O)C[C@@H](C)C(=O)[C@H](C)[C@@H](O)[C@]1(C)O [ERYTHROMYCIN] . 24.97

Please report the recorded MEAN CORPUSCULAR HEMOGLOBIN for COc1ccc(Cl)cc1C(=O)NCCc1ccc(S(=O)(=O)NC(=O)NC2CCCCC2)cc1 [GLYBURIDE] . 23.43

###

Organism: Rattus norvegicus
Assay: DrugMatrix - Regimen: Daily Repeat
Assay type: toxicity, organism-based, Sprague-Dawley
Set-up: regimen Daily Repeat, gender Male, age 6-8 weeks
Conditions: in vivo, po, 0 mg/kg, 72 h, tissue Plasma, route oral GAVAGE, dose level Control, time 3 day, vehicle 100 % WATER
ASSAY READOUT: GLUCOSE (mg/dL)
Kindly provide the numeric value in mg/dL only, without the unit symbol.

Please report the recorded GLUCOSE for Cc1cn([C@H]2C=C[C@@H](CO)O2)c(=O)[nH]c1=O . 135.67

Please report the recorded GLUCOSE for NN [HYDRAZINE] . 168.5

Please report the recorded GLUCOSE for CCC1(c2ccccc2)C(=O)NC(=O)NC1=O . 152.67

Please report the recorded GLUCOSE for C1CCN2C[C@@H]3C[C@@H](CN4CCCC[C@@H]34)[C@H]2C1 . 173.83

###

This listing pairs molecules with measured MONOCYTE.
Species on record: Rattus norvegicus
Experiment: DrugMatrix - Regimen: Daily Repeat
Format: toxicity, organism-based, Sprague-Dawley
Parameters: regimen Daily Repeat, gender Male, age 6-8 weeks
Settings: in vivo, po, 0 mg/kg, 72 h, tissue Blood, route oral GAVAGE, dose level Control, time 3 day, […]
Kindly provide the numeric value in % only, without the unit symbol.

Example molecules with recorded MONOCYTE:
1. CC(C)(c1ccc(O)cc1)c1ccc(O)cc1; 0.83
2. Cc1cccc(C)c1NC(=O)C(C)N (centres undefined) [TOCAINIDE]; 2.5
3. CO[C@H]1O[C@@H]2O[C@@]3(C)CC[C@H]4[C@H](C)CC[C@@H]([C@H]1C)[C@@]24OO3; 2.5
4. CCC(C)(C)C(=O)O[C@H]1C[C@@H](C)C=C2C=C[C@H](C)[C@H](CC[C@@H]3C[C@@H](O)CC(=O)O3)[C@H]21; 0.17
5. c1ccc2c(c1)Nc1ccccc1S2; 0.67
6. COC(=O)Nc1nc2ccc(C(=O)c3ccccc3)cc2[nH]1; 1
7. Oc1ncnc2[nH]ncc12; 0.83
8. CS(=O)(=O)c1ccc(C2=C(c3ccccc3)C(=O)OC2)cc1; 0.67

Please report the recorded MONOCYTE for COc1ccccc1OCCNCC(O)COc1cccc2[nH]c3ccccc3c12 (centres undefined) . 1

###

This listing pairs compounds with measured ALKALINE PHOSPHATASE.
Organism: Rattus norvegicus
Test: DrugMatrix - Regimen: Daily Repeat
Assay type: toxicity, organism-based, Sprague-Dawley
Design: regimen Daily Repeat, gender Male, age 6-8 weeks
Details: in vivo, po, 0 mg/kg, 120 h, tissue Plasma, route oral GAVAGE, dose level Control, time 5 day, vehicle 100 % WATER
Kindly provide the numeric value in u/L only, without the unit symbol.

Example compounds with recorded ALKALINE PHOSPHATASE:
1. C[N+](C)(C)CCOC(N)=O.[Cl-] [CARBACHOL]; 395.67
2. NN [HYDRAZINE]; 343
3. CC(Cl)(Cl)Cl [TRICHLOROETHANE]; 367.5

Please report the recorded ALKALINE PHOSPHATASE for CCN(CC)C(=S)SSC(=S)N(CC)CC . 355.5

Please report the recorded ALKALINE PHOSPHATASE for CCC1(c2ccccc2)C(=O)NC(=O)NC1=O [PHENOBARBITAL] . 343.17

Please report the recorded ALKALINE PHOSPHATASE for Cc1cc(C(C)(C)C)c(O)c(C)c1CC1=NCCN1 [OXYMETAZOLINE] . 395

Please report the recorded ALKALINE PHOSPHATASE for CN1C(=O)OC(C)(C)C1=O [TRIMETHADIONE] . 393

Please report the recorded ALKALINE PHOSPHATASE for C1CCN2C[C@@H]3C[C@@H](CN4CCCC[C@@H]34)[C@H]2C1 [SPARTEINE] . 367.5

Please report the recorded ALKALINE PHOSPHATASE for Cc1cn([C@H]2C=C[C@@H](CO)O2)c(=O)[nH]c1=O [STAVUDINE] . 395.67
